For each of the molecules below, state its GI50.
Test system: SNB-75
Test Description: NCI tumour cell line growth inhibition, 48 h
Activity calls are given as the source filed them. No stated cut-off is given here; in the data, active = GI50 up to about 1.1 µM and inactive = higher.

Sample `O=C1/C(=C/c2ccc(Cl)cc2)N=C(c2ccccc2)N1c1ccc(S(=O)(=O)Nc2nccs2)cc1` — what was its GI50? 39.5 µM (inactive)

Sample O=C1CC(C(CC(=O)c2ccccc2)c2ccccc2)C(=O)c2ccccc2N1 (stereo not given) — what was its GI50? 30.8 µM (inactive)

Sample `O=[N+]([O-])c1cc(Cl)ccc1S(=O)(=O)N1CCCc2cc(Cl)ccc21` — what was its GI50? 18.7 µM (inactive)

Sample COc1ccc(C(CC(=O)C(C)(C)CN2CCCCC2)SCCS(=O)(=O)O)cc1 (stereo not given) — what was its GI50? 22.3 µM (inactive)

Sample CC1(C)[N+]([O-])=[N+]([O-])C1(Br)c1ccccc1 (stereo not given) — what was its GI50? > 100 µM (inactive)

Sample O=C(CC(=O)N1N=C(n2ccc3ccccc32)CC1c1ccccc1)Nc1ccc(Cl)cc1 (stereo not given) — what was its GI50? 59.7 µM (inactive)

Sample `O=C1CC(c2ccc[nH]2)=NN1c1ccccc1` — what was its GI50? > 100 µM (inactive)

Sample `COc1cc(OC(=O)c2c(O)cc(O)c(O)c2C)cc(C)c1C(=O)Oc1cc(C)c(C(=O)O)c(O)c1` — what was its GI50? > 100 µM (inactive)

Sample `COc1cc(/N=N\c2ccc(OC)c(S(=O)(=O)O)c2)c(C)cc1/N=N\c1ccc(/C=C/c2ccc(/N=[N+](/[O-])c3ccc(/C=C/c4ccc(/N=N/c5cc(C)c(/N=N\c6ccc(OC)c(S(=O)(=O)O)c6)cc5OC)cc4S(=O)(=O)O)c(S(=O)(=O)O)c3)cc2S(=O)(=O)O)c(S(=O)(=O)O)c1` — what was its GI50? 58.2 µM (inactive)

Sample `O=C1NC(Nc2ccccc2)=N/C1=C\c1c(Cl)cccc1Cl` — what was its GI50? 18.9 µM (inactive)

Sample `CC1=C2C(=O)c3ccccc3C2=C(C)S(=O)(=O)O1` — what was its GI50? > 10 µM (inactive)

Sample `O=c1c(-c2ccccc2)c(SCCN2CCCCCC2)n(-c2ccccc2)c(=S)n1-c1ccccc1` — what was its GI50? > 100 µM (inactive)

Sample CC(=O)OCC1OC(n2c(C)cc(C)c(C#N)c2=S)C(OC(C)=O)C(OC(C)=O)C1OC(C)=O (stereo not given) — what was its GI50? > 100 µM (inactive)

Sample O=C1/C(=C\c2ccccc2)C(NC2CCCCC2)c2ccccc21 (stereo not given) — what was its GI50? 2.17 µM (inactive)

Sample COC(=O)NC(=O)c1cn(C2OC(CO)C(O)C2O)c(=O)[nH]c1=O (stereo not given) — what was its GI50? > 100 µM (inactive)

Sample O=c1c2ccccc2nc(-c2ccccc2)n1NC1OC(CO)C(O)C(O)C1O (stereo not given) — what was its GI50? 85.3 µM (inactive)

Sample CCCCC1CC(c2ccc(Cl)cc2)=NO1 (stereo not given) — what was its GI50? > 100 µM (inactive)

Sample `CN(C)C(=C1c2cc([N+](=O)[O-])ccc2-c2ccc([N+](=O)[O-])cc21)N(C)C` — what was its GI50? > 100 µM (inactive)

Sample `O=C1C2=Cc3ccccc3CCN2c2ccccc21` — what was its GI50? > 100 µM (inactive)

Sample CCOc1ccc2nc(NC(=O)/C(CC(=O)CC(C3=C(O)c4ccccc4CC3=O)c3ccccc3)=N\O)sc2c1 (stereo not given) — what was its GI50? 52.1 µM (inactive)

Sample `Cc1cc2[nH]c3c(C#N)c(-c4ccccc4)c(CN4CCOCC4)c(=O)n3c2cc1C` — what was its GI50? 40.7 µM (inactive)

Sample `CCOC(=O)c1ccc(/N=C2\S/C(=C\C(=S)Nc3ccccc3)N(c3ccccc3)\C2=N/c2ccc(C(=O)OCC)cc2)cc1` — what was its GI50? 34.5 µM (inactive)

Sample `Oc1ccc(Nc2nc(Cl)c3nc[nH]c3n2)cc1` — what was its GI50? > 100 µM (inactive)

Sample `O=C1O/C(=C(\Br)c2ccc([N+](=O)[O-])cc2)c2ccccc21` — what was its GI50? > 78.3 µM (inactive)

Sample `COC(=O)n1c(C)c(C=O)c2ccc(OC)cc21` — what was its GI50? 31.3 µM (inactive)

Sample CC1C2CC(CC23OCC(CCl)O3)C1(C)C (stereo not given) — what was its GI50? > 100 µM (inactive)

Sample `CC1(C)C(c2ccccc2)=[N+]([O-])C(C)(C)N1O` — what was its GI50? > 10 µM (inactive)

Sample `O=[N+]([O-])c1ccc2[nH]c(=S)[nH]c(=S)c2c1` — what was its GI50? 20.7 µM (inactive)

Sample `Brc1ccccc1-c1ncc(-c2ccccc2)o1` — what was its GI50? 20.6 µM (inactive)

Sample CCOC(=O)C(NC(=O)c1ccccc1)(N1CCN(c2cc3c(cc2F)c(=O)c(C(=O)O)cn3CC)CC1)C(F)(F)F (stereo not given) — what was its GI50? 26.1 µM (inactive)
